Reference for the values: paper PMC6864627

target: α-glucosidase (Saccharomyces cerevisiae); construct: purchased Sigma Inc; assay: α-glucosidase inhibition assay; type: biochemical; conditions: 50 mM phosphate buffer pH 6.8; 0.057 units enzyme; standard acarbose
Sequence (P53341 whole entry): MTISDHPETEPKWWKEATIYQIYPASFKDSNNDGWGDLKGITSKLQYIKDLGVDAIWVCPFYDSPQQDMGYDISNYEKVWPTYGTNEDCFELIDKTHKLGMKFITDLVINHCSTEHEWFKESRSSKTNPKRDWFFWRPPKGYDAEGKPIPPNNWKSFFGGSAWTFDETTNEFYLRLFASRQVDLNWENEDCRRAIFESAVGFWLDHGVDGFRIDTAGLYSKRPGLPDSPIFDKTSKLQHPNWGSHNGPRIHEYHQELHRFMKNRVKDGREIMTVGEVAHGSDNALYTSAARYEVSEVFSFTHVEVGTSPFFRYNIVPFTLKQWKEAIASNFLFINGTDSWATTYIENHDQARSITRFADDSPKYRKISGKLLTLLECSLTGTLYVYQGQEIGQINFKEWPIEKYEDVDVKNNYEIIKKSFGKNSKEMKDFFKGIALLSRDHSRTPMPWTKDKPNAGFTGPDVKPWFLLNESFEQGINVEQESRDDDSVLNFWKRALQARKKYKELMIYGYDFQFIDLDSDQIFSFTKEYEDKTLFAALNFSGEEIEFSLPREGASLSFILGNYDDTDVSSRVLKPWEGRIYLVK
For each record, write down the corresponding IC50.
Give bare numbers, in µM.

Examples from the recorded data:
>  <chemicalStructure>
COc1ccc(C(CSc2nnc3c(n2)[nH]c2ccccc23)=NNC(=S)Nc2cccc(C)c2C)cc1

>  <IC50 / µM>
5.9

$$$$
>  <chemicalStructure>
COc1ccc(C(CSc2nnc3c(n2)[nH]c2ccccc23)=NNC(=S)Nc2ccc(C)cc2)cc1

>  <IC50 / µM>
5.2

$$$$
>  <chemicalStructure>
S=C(NN=C(CSc1nnc2c(n1)[nH]c1ccccc12)c1ccc(-c2ccccc2)cc1)Nc1ccc(Cl)c(Cl)c1

>  <IC50 / µM>
2.3

$$$$

# map each compound to its IC50
1. Cc1ccc(NC(=S)NN=C(CSc2nnc3c(n2)[nH]c2ccccc23)c2cccc([N+](=O)[O-])c2)cc1
2. Cc1ccc(C(CSc2nnc3c(n2)[nH]c2ccccc23)=NNC(=S)Nc2ccccc2Br)cc1
3. Cc1ccc(C(CSc2nnc3c(n2)[nH]c2ccccc23)=NNC(=S)Nc2c(C)cccc2C)cc1
4. O=[N+]([O-])c1cccc(C(CSc2nnc3c(n2)[nH]c2ccccc23)=NNC(=S)Nc2cccc(Cl)c2Cl)c1

Ans:
1. 8.3
2. 33.3
3. 7.5
4. 1.3
